Target: human α1A-adrenoceptor (Homo sapiens, UniProt P35348)
Construct: CHO cells stably expressing either the full‐length human α1A, α1B, or α1D‐adrenoceptor
Sequence (P35348 whole entry): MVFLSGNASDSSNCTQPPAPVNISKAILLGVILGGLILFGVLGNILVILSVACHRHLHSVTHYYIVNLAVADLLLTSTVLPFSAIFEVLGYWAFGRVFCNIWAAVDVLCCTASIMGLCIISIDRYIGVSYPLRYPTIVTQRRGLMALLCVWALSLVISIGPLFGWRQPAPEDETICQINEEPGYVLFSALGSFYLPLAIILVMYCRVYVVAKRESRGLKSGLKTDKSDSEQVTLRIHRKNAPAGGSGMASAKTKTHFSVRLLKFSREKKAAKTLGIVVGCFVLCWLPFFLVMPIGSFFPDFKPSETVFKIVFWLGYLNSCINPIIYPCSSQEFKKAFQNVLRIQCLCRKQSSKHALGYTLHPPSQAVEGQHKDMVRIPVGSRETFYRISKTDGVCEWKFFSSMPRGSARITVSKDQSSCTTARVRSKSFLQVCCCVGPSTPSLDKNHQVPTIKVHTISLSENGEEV
Assay: [3H]prazosin whole-cell competition binding, CHO-α1A cells
Conditions: ratio; 1 = no selectivity for a subtype over another
Below is a list of entries, each paired with its recorded selectivity α1A vs 1D value.
Respond with the number and no other words.

> print(dat)
                                   compound  measured.number
1  CC(C)OC(=O)c1cc2c(OCC(O)CNC(C)(C)C)cccc2[nH]1 (stereo not shown)              1.4
2  Cn1cc(C(F)(F)F)nc1-c1ccc(OCC(O)CNCCOc2ccc(O)c(C(N)=O)c2)cc1 (stereo not shown) [CGP 20712A]              1.1
3  COc1cc2nc(N3CCN(C(=O)c4ccco4)[C@H]4CCCC[C@H]43)nc(N)c2cc1OC (racemic)              9.5

Note: attention shifts to another entry.
selectivity α1A vs 1D in this record for CN1CC[C@]2(CCN3CCc4c(oc5ccccc45)[C@@H]3C2)N(C)C1=O.Cl : 3.5
